B1: Azoarcus group I ribozyme (parent)
chain: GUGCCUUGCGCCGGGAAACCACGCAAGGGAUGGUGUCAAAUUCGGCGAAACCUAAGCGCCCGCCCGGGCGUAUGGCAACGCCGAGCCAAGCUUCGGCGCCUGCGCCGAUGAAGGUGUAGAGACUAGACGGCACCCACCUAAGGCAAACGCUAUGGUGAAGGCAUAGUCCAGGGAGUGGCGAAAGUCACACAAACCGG

Variants of: B1
runDescription: reverse-splicing fitness (ratio to wild type); higher = more active; in vitro selection; Mg2+ level not given
Please map values of reverse-splicing fitness to classes as shown: zone 1: < 0.008; zone 2: ≥ 0.008 and < 0.02; zone 3: ≥ 0.02

>  <mutantId>
C82A A111C C169G U176G

>  <qualitativeLabel>
zone 1

$$$$
>  <mutantId>
C82A A111C A120U C169G U176C

>  <qualitativeLabel>
zone 1

$$$$
>  <mutantId>
A120C A145U C169A

>  <qualitativeLabel>
zone 3

$$$$
>  <mutantId>
A111U A120C A145C C150A C169U U176A

>  <qualitativeLabel>
zone 2

$$$$
>  <mutantId>
A111G A120G A145G C150U C169G

>  <qualitativeLabel>
zone 3

$$$$
>  <mutantId>
C82G A111U A120U C169G U176C

>  <qualitativeLabel>
zone 1

$$$$
>  <mutantId>
C82U A111U A145C C150U U176A

>  <qualitativeLabel>
zone 3

$$$$
>  <mutantId>
C82G A111U A145G C150U C169U U176A

>  <qualitativeLabel>
zone 2

$$$$
>  <mutantId>
C82U A111G A145C U176G

>  <qualitativeLabel>
zone 3

$$$$
>  <mutantId>
C82G A120C A145U C150A C169A

>  <qualitativeLabel>
zone 2

$$$$
>  <mutantId>
C82A A111G A120U A145G C150U U176A

>  <qualitativeLabel>
zone 2

$$$$
>  <mutantId>
A111U A120C A145C C150A C169A U176G

>  <qualitativeLabel>
zone 1

$$$$
>  <mutantId>
A111U A120C A145C C150G C169G U176G

>  <qualitativeLabel>
zone 1

$$$$
>  <mutantId>
C82A A111C A120U A145U C150G C169A

>  <qualitativeLabel>
zone 1

$$$$
>  <mutantId>
A111G A120U A145U C169G

>  <qualitativeLabel>
zone 3

$$$$
>  <mutantId>
C82G A120C A145G C150G C169G U176A

>  <qualitativeLabel>
zone 2

$$$$
>  <mutantId>
A111G A145C C150U C169G

>  <qualitativeLabel>
zone 3

$$$$
>  <mutantId>
C82G A120C A145G C150A C169U

>  <qualitativeLabel>
zone 2

$$$$
>  <mutantId>
C82A A111C A120U A145U C150U C169U U176C

>  <qualitativeLabel>
zone 1

$$$$
